Assay: Toxicity against Vero cells (MTT)
Type: cell-based, African green monkey
Settings: African green monkey, Vero cells (mammalian kidney cell line); MTT, 48 h
Description: It should be emphasized that toxicity is a major concern of drug discovery and development. The above active compounds were evaluated for in vitro toxicity against a mammalian kidney cell line (Vero). The selectivity index (SI) was used as the evaluation parameter of drug potential of the test samples by comparing the toxicity on the Vero cell line (CC50) and the selective inhibitory effect on P. falciparum, L. donovani or T. cruzi (IC50) calculated here as CC50/IC50. […]
# if measured CC50 at 48 h < 300 µM: criterion met  # else: criterion not met

In [3]: df
Out[3]:
                         chemical_structure              label
0  COc1cc(O)c2c(c1)/C=C/C[C@H](OC(C)=O)[C@H](OC(C)=O)C(=O)/C=C\C[C@H](C)OC2=O      criterion met
1  COc1cc2c(c(OC(=O)c3cccs3)c1)C(=O)O[C@@H](C)C/C=C/C(=O)[C@@H](OC(=O)c1cccs1)[C@@H](OC(=O)c1cccs1)C/C=C/2      criterion met
2  COc1cc(O)c2c(c1)/C=C/C[C@H](OC(C)=O)[C@H](OC(C)=O)[C@@H](OC(C)=O)/C=C/C[C@H](C)OC2=O  criterion not met
3  COc1cc(O)c2c(c1Cl)/C=C/C[C@H](O)[C@H](O)[C@@H](O)/C=C/C[C@H](C)OC2=O      criterion met
4  COc1cc2c(c(OC(C)=O)c1)C(=O)O[C@@H](C)C/C=C/[C@@H]1OC(C)(C)O[C@H]1[C@@H](OC(C)=O)C/C=C/2  criterion not met

// switching to the query molecule
Determine if "COc1cc(O)c2c(c1)/C=C/C[C@H](O)[C@H](O)C(=O)/C=C/C[C@H](C)OC2=O" shows CC50 at 48 h strictly lower than 300 µM.
criterion met

###

assay: Cytotoxicity SRB assay, HUVEC; details: human, HUVEC (umbilical vein endothelial cells)
Entries and their IC50 at 72 h

>>> print(df.to_string())
                         chemical_structure    value
0  COc1cc2c(c(OC(C)=O)c1)C(=O)O[C@@H](C)C/C=C/C(=O)[C@@H](OC(C)=O)[C@@H](OC(C)=O)C/C=C/2  4.52 µM
1  COc1cc(O)c2c(c1)/C=C/C[C@H](OC(C)=O)[C@H](OC(C)=O)C(=O)/C=C\C[C@H](C)OC2=O   5.9 µM

Attention now turns to another entry.
Return the recorded IC50 at 72 h value; entry: "COc1cc2c(c(OC(C)=O)c1)C(=O)O[C@@H](C)C/C=C/[C@@H]1OC(C)(C)O[C@H]1[C@@H](OC(C)=O)C/C=C/2"
> 10 µM

###

assay: Cytotoxicity SRB assay, HCT-116; conditions: human
Entries and their IC50 at 72 h

Return the recorded IC50 at 72 h value; entry: "COc1cc(O)c2c(c1)/C=C/C[C@H](O)[C@H](O)C(=O)CCC[C@H](C)OC2=O"
> 10 µM

Return the recorded IC50 at 72 h value; entry: "COc1cc(O)c2c(c1Cl)/C=C/C[C@H](O)[C@@H]1OC(C)(C)O[C@H]1CCC[C@H](C)OC2=O"
> 10 µM

Return the recorded IC50 at 72 h value; entry: "COc1cc(O)c2c(c1Cl)/C=C/C[C@H](O)[C@H](O)[C@@H](O)CCC[C@H](C)OC2=O"
> 10 µM

###

assay: Cytotoxicity SRB assay, MCF-7; settings: human, MCF-7 breast cancer cells
MEASURED METRIC: IC50 at 72 h

Return the recorded IC50 at 72 h value; entry: "COc1cc(O)c2c(c1)/C=C/C[C@@H](O)[C@H](O)C(=O)/C=C/C[C@H](C)OC2=O"
> 10 µM

Return the recorded IC50 at 72 h value; entry: "COc1cc(O)c2c(c1)/C=C/C[C@H](O)[C@H](O)C(=O)/C=C\C[C@H](C)OC2=O"
> 10 µM

Return the recorded IC50 at 72 h value; entry: "COc1cc2c(c(OC(C)=O)c1)C(=O)O[C@@H](C)C/C=C/[C@@H]1OC(C)(C)O[C@H]1[C@@H](OC(C)=O)C/C=C/2"
> 10 µM

Return the recorded IC50 at 72 h value; entry: "COc1cc(O)c2c(c1Cl)/C=C/C[C@H](O)[C@@H]1OC(C)(C)O[C@H]1/C=C/C[C@H](C)OC2=O"
> 10 µM

Return the recorded IC50 at 72 h value; entry: COc1cccc2c1C(=O)c1c(O)c3c(c(O)c1C2=O)C[C@@](O)(C(=O)CO)C[C@@H]3O[C@H]1C[C@H](N)[C@H](O)[C@H](C)O1 [Adriamycin, reference compound]
0.86 µM

Return the recorded IC50 at 72 h value; entry: "COc1cc(O)c2c(c1)/C=C/C[C@H](OC(C)=O)[C@H](OC(C)=O)[C@@H](OC(C)=O)/C=C/C[C@H](C)OC2=O"
> 10 µM

###

experiment: Toxicity against Vero cells (MTT); type: cell-based, African green monkey; settings: African green monkey, Vero cells (mammalian kidney cell line); MTT, 48 h
MEASURED METRIC: CC50 at 48 h
// return the numeric value with its unit appended

Recorded CC50 at 48 h, per entry:
MOLECULE	CC50 at 48 h
COc1cc2c(c(OC(C)=O)c1)C(=O)O[C@@H](C)C/C=C/C(=O)[C@@H](OC(C)=O)[C@@H](OC(C)=O)C/C=C/2 [Compound 21]	5.8 µM
COc1cc2c(c(OC(C)=O)c1)C(=O)O[C@@H](C)C/C=C/C(=O)[C@@H](OC(C)=O)[C@H](OC(C)=O)C/C=C/2 [Compound 24]	3.2 µM
COc1cc2c(c(OC(=O)c3ccco3)c1)C(=O)O[C@@H](C)C/C=C/[C@H](OC(=O)c1ccco1)[C@@H](OC(=O)c1ccco1)[C@@H](OC(=O)c1ccco1)C/C=C/2 [Compound 15]	1570 µM

Return the recorded CC50 at 48 h value; entry: COc1cc(O)c2c(c1Cl)/C=C/C[C@H](O)[C@@H]1OC(C)(C)O[C@H]1/C=C/C[C@H](C)OC2=O [Compound 17]
143 µM

###

Entries and their pIC50
test system: Trypanosoma cruzi; experiment: Antitrypanosomal assay (beta-galactosidase reporter, intracellular amastigotes in Vero cells); type: cell-based; settings: Trypanosoma cruzi; Tulahuen clone C4, intracellular amastigotes in Vero cells, 120 h; read-out: Trypanosoma cruzi IC50; further: key: I: Inactive
The read-out pIC50 is expressed as -log10 of concentration in moles per litre.

                                   compound  value
0  COc1cc2c(c(OC(C)=O)c1)C(=O)O[C@@H](C)C/C=C/[C@@H]1OC(C)(C)O[C@H]1[C@@H](OC(C)=O)C/C=C/2 [Compound 11]   4.92
1  COc1cc2c(c(OC(=O)c3cccs3)c1)C(=O)O[C@@H](C)C/C=C/C(=O)[C@@H](OC(=O)c1cccs1)[C@@H](OC(=O)c1cccs1)C/C=C/2 [Compound 22]   5.20

Attention now turns to another entry.
Return the recorded pIC50 value; entry: COc1cc(O)c2c(c1)/C=C/C[C@H](OC(C)=O)[C@H](OC(C)=O)[C@@H](OC(C)=O)/C=C/C[C@H](C)OC2=O [Compound 12]
4.76

###

test: Toxicity against Vero cells (MTT); format: cell-based, African green monkey; conditions: African green monkey, Vero cells (mammalian kidney cell line); MTT, 48 h
Entries and their CC50 at 48 h

Recorded CC50 at 48 h, per entry:
                                   molecule  measured_metric   value
0  COc1cc(O)c2c(c1)/C=C/C[C@H](O)[C@H](O)C(=O)/C=C\C[C@H](C)OC2=O [Compound 7]     CC50 at 48 h  < 1 µM
1  COc1cc2c(c(OC(C)=O)c1)C(=O)O[C@@H](C)C/C=C/[C@H](OC(C)=O)[C@@H](OC(C)=O)[C@@H](OC(C)=O)C/C=C/2 [Compound 13]     CC50 at 48 h  427 µM

Attention now turns to another entry.
Return the recorded CC50 at 48 h value; entry: COc1cc(O)c2c(c1)/C=C/C[C@H](O)[C@@H]1OC(C)(C)O[C@H]1/C=C/C[C@H](C)OC2=O [Compound 1, cochliomycin A]
96 µM

###

experiment: Cytotoxicity SRB assay, HeLa; settings: human, HeLa cervical epithelium cells
MEASURED METRIC: IC50 at 72 h

Return the recorded IC50 at 72 h value; entry: "COc1cc(O)c2c(c1)/C=C/C[C@H](O)[C@H](O)C(=O)/C=C/C[C@H](C)OC2=O"
> 10 µM

Return the recorded IC50 at 72 h value; entry: "COc1cc(O)c2c(c1)/C=C/C[C@H](O)[C@@H]1OC(C)(C)O[C@H]1/C=C/C[C@H](C)OC2=O"
> 10 µM

Return the recorded IC50 at 72 h value; entry: COc1cccc2c1C(=O)c1c(O)c3c(c(O)c1C2=O)C[C@@](O)(C(=O)CO)C[C@@H]3O[C@H]1C[C@H](N)[C@H](O)[C@H](C)O1 [Adriamycin, reference compound]
0.6 µM
